Data origin: patent US20250297004A1

- tested-on: T1, human Nectin-4 (Homo sapiens, UniProt Q96NY8)
- T1 sequence (Q96NY8 32-510): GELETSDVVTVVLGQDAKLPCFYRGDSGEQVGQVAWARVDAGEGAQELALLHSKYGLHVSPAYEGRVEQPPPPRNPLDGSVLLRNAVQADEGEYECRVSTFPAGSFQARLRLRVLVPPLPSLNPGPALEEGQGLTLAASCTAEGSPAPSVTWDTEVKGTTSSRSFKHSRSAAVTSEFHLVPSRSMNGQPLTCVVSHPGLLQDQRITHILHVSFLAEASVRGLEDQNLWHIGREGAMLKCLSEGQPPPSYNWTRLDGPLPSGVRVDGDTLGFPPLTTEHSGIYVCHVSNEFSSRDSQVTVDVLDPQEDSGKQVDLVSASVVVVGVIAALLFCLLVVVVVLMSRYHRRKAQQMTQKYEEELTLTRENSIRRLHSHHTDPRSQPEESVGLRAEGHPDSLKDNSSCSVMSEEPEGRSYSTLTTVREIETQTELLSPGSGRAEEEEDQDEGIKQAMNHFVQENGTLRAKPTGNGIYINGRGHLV
- protocol-text: Binding to human Nectin-4 by SPR
- condition-summary: SPR association constant; second set (Table 7)
Classification field: enter T for ka values not below 200000 M⁻¹ s⁻¹, F for values below it.

input: I'd appreciate it if you could say whether H5L1 (antibody, human IgG1, V domains shown, human IgG1 isotype) VH: QVQLVQSGAEVKKPGASVKVSCKASGYIFTSYWMHWVKQRPGQGLEWMGEIDPSDSYTNYNQKFKGRVTMTLDKSTSTTYMELSSLRSEDTAVYYCARGYGNYGDYWGQGTLVTVSS VL: DVVMTQSPLSLPVTPGEPASISCRSSKSLLHSNGITYLYWYLQKPGQSPQLLIYQMSNLASGVPDRFSSSGSGTDFTLKISRVEAEDVGVYYCAQNLELPWTFGGGTKVEIK has ka at least equal to 200000 M⁻¹ s⁻¹.
output: T

input: I'd appreciate it if you could say whether H6L2 (antibody, human IgG1, V domains shown, human IgG1 isotype) VH: QVQLVQSGAEVKKPGASVKVSCKASGYIFTSYWMHWVKQRPGQGLEWIGEIDPSDSYTNYNQKFKGRVTMTLDKSTSTTYMELSSLRSEDTAVYYCARGYGNYGDYWGQGTLVTVSS VL: DVVMTQSPLSNPVTPGEPASISCRSSKSLLHSNGITYLYWYLQKPGQSPQLLIYQMSNLASGVPDRFSSSGSGTDFTLKISRVEAEDVGVYYCAQNLELPWTFGGGTKVEIK has ka at least equal to 200000 M⁻¹ s⁻¹.
output: F

input: I'd appreciate it if you could say whether H7L3 (antibody, human IgG1, V domains shown, human IgG1 isotype) VH: QVQLVQSGAEVKKPGASVKVSCKASGYIFTSYWMHWVKQRPGQGLEWIGEIDPSDSYTNYNQKFKGRVTLTLDKSTSTTYMELSSLRSEDTAVYYCARGYGNYGDYWGQGTLVTVSS VL: DVVMTQSALSNPVTPGEPASISCRSSKSLLHSNGITYLYWYLQKPGQSPQLLIYQMSNLASGVPDRFSSSGSGTDFTLKISRVEAEDVGVYYCAQNLELPWTFGGGTKVEIK has ka at least equal to 200000 M⁻¹ s⁻¹.
output: F
